# study target: T1, human MSLN-FL-his protein (human, UniProt Q13421 296-580)
# T1 construct: Made in HEK293E cells, purified on nickel column; also called hMSLN-FL-his; human MSLN full-length protein; not shown: His tag
# T1 sequence (Q13421 other isoform, or with tags, fused parts or gaps): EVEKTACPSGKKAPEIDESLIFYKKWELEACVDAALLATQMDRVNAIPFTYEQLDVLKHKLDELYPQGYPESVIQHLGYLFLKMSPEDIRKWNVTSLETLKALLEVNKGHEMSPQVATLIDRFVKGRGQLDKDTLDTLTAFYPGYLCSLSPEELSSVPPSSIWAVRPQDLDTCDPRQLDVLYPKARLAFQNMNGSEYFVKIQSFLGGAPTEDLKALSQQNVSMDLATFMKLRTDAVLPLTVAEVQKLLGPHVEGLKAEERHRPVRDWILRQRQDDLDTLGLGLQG
# protocol notes: ELISA, coated antigen, antibody 0.02 nM
reported property: OD450
Please respond with just the number, no unit label.

Reported OD450 ( S009-F7.65.13 chimeric antibody (antibody, human IgG1, kappa, V domains shown, Human-murine chimeric antibody, human IgG1/kappa constant regions) VH: EVQLQQSGPELVKPGTSVKILCKASGDTFTAYNMDWVKQRHGQSLEWIGDINPNTDSTIYNQKFEGKAILTVDKSSSTAYMELRSLTSEDTAVYYCARRKLGRGYFDYWGQGTTLTVSS VL: QIVLTQSPAIMSASPGEKVTMTCSVNLSVRYIYWYQQKPGSSPRLLIHDTSNLASGVPVRFSGSGSGTSYSLTISRMEAEDAATYYCQQWSSFPYTFGGGTKLEIKR ) = 1.35

Reported OD450 ( S009-F7.67.12 chimeric antibody (antibody, human IgG1, kappa, V domains shown, Human-murine chimeric antibody, human IgG1/kappa constant regions) VH: QVQLQQPGTELVKPGASVRLSCRASGYSFSSYWMHWVKQRPGQGLEWLGNINPTTGDINYNEKFRNRATLAVDKSSTTAYLQLTSLTSEDSAVYFCVRHDGFLWGQGTTLTVSS VL: DIQMTQSPASLSASVGETVTITCRASENIYSYLAWYQQKQGKSPQLLVYYAKTLAEGVSSRFSGSGSGTQFSLKINSLQPEDFGTYYCQHQFGTPRTFGGGTKLEIRR ) = 0.75
